test: galactose survival enhancers in mitochondrial complex I cybrids – cell-based, galactose medium, ATP luminescence, primary screen (AID 1645843); conditions: complex I mutant cybrid cells, 72 h, stronger effect = higher value;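 note: positive z means more ATP and so rescue of galactose-driven cybrid death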
Calls of active or inactive are those of the source.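 Rule for the calls: active = z-score of at least 1.8 in each of two replicates, scored against plate mean and spread of sample wells; inactive = the rest.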
reported endpoint: z-score

molecule COc1ccc(C(=O)N2CCN(C(=O)c3ccc4sc(N)nc4c3)CC2)cc1 , z-score observed: -0.575 (inactive)

The value of z-score measured for the molecule CN(C)c1ncc(CN2CCc3c(cc(Cc4ccccc4)c(=O)n3Cc3ccc(F)cc3)C2)s1 turned out to be -0.525 (inactive)

z-score recorded for this molecule, O=C(NCCc1nc2ccc(F)cc2[nH]1)c1cnccn1 , is -0.435 (inactive)

The reported z-score of the molecule CC(C)C[C@H](NC(=O)[C@H](O)[C@H](N)Cc1ccccc1)C(=O)O was 0.245 (inactive)

---

# z-score values compiled below
experiment: MELAS cybrid and Rieske KO viability enhancers – cell-based, MELAS cybrids, Rieske KO mouse fibroblasts, CellTiter-Glo, primary screen (AID 1508586); details: MELAS cybrid survival, low glucose, CellTiter-Glo 48 h; stronger effect = higher value;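 note: test concentration not given here; z relative to plate mean and SD of compound and empty wells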
Could you respond with only the numeric value?

The recorded z-score for COc1cc2c(cc1-c1nnc3ccccn13)OCO2 is 0.597

Entry O=c1[nH]c(=O)n(C2CC(O)C(CO)O2)cc1C(F)(F)F (stereo not given) ; z-score = -0.198

Recorded z-score (molecule CC1C=CC=CC=CC=CC=CC=CC=CC(OC2OC(C)C(O)C(N)C2O)CC2O[C@@](O)(CC(O)CC(O)C(O)CCC(O)CC(O)CC(=O)OC(C)C(C)C1O)CC(O)C2C(=O)O (stereo not given in full) ): -0.196

Given item C[C@@]12C(=O)N(c3ccc(C(=O)Nc4cccc5cccnc45)cc3)C(=O)[C@@H]1C1C=CC2C1 (stereo not given in full) , the value recorded as its z-score is 0.0501

Given item CCCC1C(=O)N2C(N(C)C)=Nc3ccc(C)cc3N2C1=O (stereo not given) , the value recorded as its z-score is 0.00688

---

assay: viability loss with induced miR-34 in A549 – imaging, A549 dox-inducible miR-34, nuclei and caspase counts, primary screen (AID 1347080); conditions: A549 miR-34 inducible, Hoechst nuclei count, 48 h; stronger effect = lower value; cell number ratio, induced over uninduced; note: test concentration not given here
reported endpoint: fold change
Just the number.

For CCCCCCCCCCCCCCCCOC[C@H](CO)OC(C)=O the compound record lists fold change as 0.961

// NS(=O)(=O)c1ccc(C(=O)NCc2ccccc2)cc1 : fold change value = 0.871

# fold change of CC1(C)OC2C[C@H]3[C@@H]4CCC5=CC(=O)C=C[C@]5(C)[C@]4(F)C(O)C[C@]3(C)[C@@]2(C(=O)CO)O1 (some centres undefined) = 0.812

Given item CC(C)c1cccc(C(C)C)c1N1C(=O)c2ccc(O)cc2C1=O , the value recorded as its fold change is 1.39

Value of fold change reported for the compound CON=C(C(=O)NC1C(=O)N2C(C(=O)OCOC(=O)C(C)(C)C)=C(C=Cc3scnc3C)CS[C@H]12)c1csc(N)n1 (some centres undefined) is 0.852

---

assay: viability loss with induced miR-34 in A549 – imaging, A549 dox-inducible miR-34, nuclei and caspase counts, primary screen (AID 1347080); details: A549 miR-34 inducible, Hoechst nuclei count, 48 h; measured here: total cells without miR-34 induction; note: test concentration not given here
This listing pairs compounds with measured cell count.
# respond with the number and nothing more

compound	cell count
COC1=CC(=O)CC(C)[C@@]12Oc1c(Cl)c(OC)cc(OC)c1C2=O (stereo partly specified)	8510

The compound identified as COc1ccc(CC(N)=O)cc1 registered its cell count at 8730

The measured cell count associated with O=C1O/C(=C/Br)CCC1c1cccc2ccccc12 (stereo unspecified) reads 4490

Looking up O=C(Nc1ccc(S(=O)(=O)Nc2ccccc2Cl)c(Cl)c1)c1ccccn1 , I found its cell count recorded as 8970

cell count reading for O=[N+]([O-])c1ccc2[nH]ncc2c1 : 9820

Query CNC(=O)[C@H]1O[C@@H](n2cnc3c(NCc4ccc(I)cc4)nc(Cl)nc32)[C@H](O)[C@@H]1O yields cell count of 5510

cell count reported for this compound O=C(O)c1ccc(-c2ccc([N+](=O)[O-])cc2Cl)o1 : 9440

Consider Cn1c(=O)c2c(nc(/C=C/c3cccc(Cl)c3)n2C)n(C)c1=O . Its measured cell count is 9370

Sample COC(=O)CN1CCN(c2ncnc3sccc23)C(C)C1=O (stereo unspecified) ; cell count observed: 9220

For O=C(O)c1ccc(-c2cc(Cl)ccc2Cl)o1 the compound record lists cell count as 9840

Form field cell count, entry CC(=O)c1cc([N+](=O)[O-])c(Sc2cccc(Cl)c2Cl)s1 : 9050

Measured cell count, CCC(=O)O[C@@]1(C(=O)CCl)C(C)C[C@H]2[C@@H]3CC(F)C4=CC(=O)C=C[C@]4(C)[C@]3(F)C(O)C[C@@]21C (stereo partly specified) : 5780

The measured cell count associated with COc1ccc2c(OC)c3ccoc3nc2c1OC reads 10100

For reference, reported cell count for Cc1cc(Cn2cnc3c2CC(C(=O)O)N(C(=O)C(c2ccccc2)c2ccccc2)C3)ccc1N(C)C (stereo unspecified) stands at 8710

Lab note: CC1OC(OC2C(Oc3cc(O)c4c(c3)OC(c3ccc(O)cc3)CC4=O)OC(CO)C(O)C2O)C(O)C(O)C1O (stereo unspecified) gave cell count of 8300

The compound listed as COC1C=CO[C@]2(C)Oc3c(C)c(O)c4c(O)c(c5c(nc6cc(C)ccn65)c4c3C2=O)NC(=O)C(C)=CC=CC(C)C(O)C(C)C(O)C(C)C(OC(C)=O)C1C (stereo partly specified) shows cell count equal to 8110

In plain terms, Nc1ncnc2c1ncn2C1CCCC1 has a documented cell count of 10200

Notebook: COc1ccc(CCn2nnnc2C2(c3ccc(C)cc3)CC2)cc1 , cell count read as 8010

Looking up CCCCCCCC/C=C\CCCCCCCC(=O)OC[C@H](CO)OC(=O)CCCCCCC/C=C\CCCCCCCC , I found its cell count recorded as 5170

Entry NS(=O)(=O)c1ccc(C(=O)NCc2ccccc2)cc1 , cell count reported as 9540

Reported cell count for CCNC(=O)Nc1ccc(-c2nc3c(c(N4CCOCC4C)n2)CCN(C2COC2)C3)cc1 (stereo unspecified) was 3080

---

# cell count annotations
assay: viability loss with induced miR-34 in A549 – imaging, A549 dox-inducible miR-34, nuclei and caspase counts, primary screen (AID 1347080); conditions: A549 miR-34 inducible, Hoechst nuclei count, 48 h; measured here: total cells without miR-34 induction; note: test concentration not given here

molecule	cell count
Cc1cc(C)nc(NS(=O)(=O)c2ccc(NC(=S)NC(=O)COc3ccc(Br)cc3Cl)cc2)n1	7900
CC(NC(=O)C(O)C(C)C)C(=O)NC1C(=O)N(C)CCc2ccccc21 (stereo unspecified)	8020
OCCNc1ncnc2oc(-c3ccccc3)c(-c3ccccc3)c12	5160
C[C@]12CC[C@H]3c4ccc(O)cc4CC[C@H]3[C@@H]1CC(O)C2O (stereo partly specified)	10100
CCC(=O)OCC(=O)[C@]1(OC(=O)CC)C(C)C[C@H]2[C@@H]3CCC4=CC(=O)C=C[C@]4(C)[C@]3(Cl)C(O)C[C@@]21C (stereo partly specified)	6250

Now look at this one.
Measured cell count, c1ccc2c(c1)CCCc1cc(NCCN3CCOCC3)nnc1-2 : 9100

---

test: viability loss with induced miR-34 in A549 – imaging, A549 dox-inducible miR-34, nuclei and caspase counts, primary screen (AID 1347080); conditions: A549 miR-34 inducible, Hoechst nuclei count, 48 h; measured here: total cells without miR-34 induction; note: test concentration not given here
reported endpoint: cell count
Please give only the number in your answer, with no unit.

Check out these entries, answers already filled in.
>>> print(df.to_string())
                                   molecule  number
0  Cc1cn(C2CC(N=[N+]=[N-])C(CO)O2)c(=O)[nH]c1=O (stereo not given)    8330
1  CCCC(Nc1nc(-c2ccc(NC(=O)NCC)c(OC)c2)ncc1C)c1cccnc1 (stereo not given)    1370
2                  N[C@@H](CCCC(=O)O)C(=O)O    9930
3  CC(C)(Oc1ccc(Cl)cc1)C(=O)OCCOC(=O)c1cccnc1    9330
4          S=c1[nH]c(-c2ccccc2)cn1-c1ccccc1    9280
5  CCC(=O)OC(OP(=O)(CCCCc1ccccc1)CC(=O)N1C[C@H](C2CCCCC2)C[C@H]1C(=O)O)C(C)C (stereo not given in full)   10700
6  O=C1NCc2c1c1c3ccccc3[nH]c1c1[nH]c3ccccc3c21    1350
7      CN1CCN(C(=O)c2cc3cc(Cl)ccc3[nH]2)CC1    8310
8  CCCCC[C@H](O)/C=C/C=C\C/C=C\C/C=C\CCCC(=O)O    5700

Turning now to a further molecule:
Reported cell count of CC(C)c1c(C(=O)Nc2ccccc2)c(-c2ccccc2)c(-c2ccc(F)cc2)n1CCC(O)CC(O)CC(=O)O (stereo not given) : 4330
